Entry source: the supplement of paper PMC9170038

System: MS2 coat protein
Assay: apparent KD of MS2 coat protein; designed switch direction (-1 OFF switch, 1 ON switch): -1; higher = weaker reporter binding
Recorded Conditions: input ligand: none
Hi there, I'd appreciate the recorded apparent KD of MS2 coat protein for every entry that follows.
Respond numerically; units are nM and should not be typed.

Req: Item CACCGGGUAGGAUAUACUUGAGGAUCACCCAAGUGGGAACCUACUCGGUGGUCCUUAAGUAGAAGGACCAACGG [Ex 2] (Eterna round: R97, puzzle: Exclusion 3) : provide apparent KD of MS2 coat protein
Resp: 11.9

Req: Return reported apparent KD of MS2 coat protein. Input sequence: UUAGAUUGAGGAUAUACAUGAGGAUCACCCAUGUCGAUACCAAUGGUGUUGACCGUCAGUAGAAGGCGAAUUGA [Eternabot (L1) Solution 87] (Eterna round: R97, puzzle: Exclusion 3)
Resp: 123

Req: Supply recorded apparent KD of MS2 coat protein for AAACGGGUGUCCUCGUUUUCAACAUGAGGAUCACCCAUGUUCGAGGAUAUCCGAUAAGCUCUUCAGGAGAAGGCGAACAUAAAA [Eninenat] (Eterna round: R96, puzzle: Exclusion NG 3) here.
Resp: 18.4

Req: State, in one line, measured apparent KD of MS2 coat protein of GGUCAGAUGGUAGGAUAUCCAUAUCGAGUGACCCUUUCAUAACAUGAGGAUCACCCAUGUCGGUGGGAGAAGGGCUGUACGGCG [salish99_ExNG02_R04_021] (Eterna round: R96, puzzle: Exclusion NG 2)
Resp: 43.3

Req: Hello, please tell me recorded apparent KD of MS2 coat protein for this one: UUUUUUGGGCAAGGAUAUCCUGUGCGGUUCCGGCUCGUGUCUGUUACAUGAGGAUCACCCAUGUGGGAGAAGGUGCCUGCGGUU [Design 85] (Eterna round: R96, puzzle: Exclusion NG 2)
Resp: 34.9

Req: State, in one line, measured apparent KD of MS2 coat protein of AGCGAAUAAGCAGGAUAUGAGAAUAGAUAGAGCUCAGAAGGGCUACAUGAGGAUCACCCAUGUAAAGUCUUGAGGCUGCGUGGU [Prohibition 13 - Jieux - Exclusion NG 1] (Eterna round: R96, puzzle: Exclusion NG 1)
Resp: 18.4

Req: Kindly indicate its recorded apparent KD of MS2 coat protein. Item: GAGGGAGGAGGAUAUUCCUUCGAGAACAUGAGGAUCACCCAUGUGUUAUAUCGAAAGCCCGAAGAAGGCCUCGCUA [Eternabot (Original) Solution 50] (Eterna round: R97, puzzle: Exclusion 5)
Resp: 20.2

Req: Read the entry GUGCCGCGAGGAUAUACAGACGGGUCCAGUACGUGUCUUGGACUUGAGGAUCACCCAAGUAGAAGGCGUCUCAG [salish99_ex2_r4_612] (Eterna round: R97, puzzle: Exclusion 2) and write its reported apparent KD of MS2 coat protein.
Resp: 48.9

Req: In one line, give reported apparent KD of MS2 coat protein of the entry UUUUGUCGUGACAUGGGUGACAUGAGGAUCACCCAUGUUACAAGCUUGUUGCUCGUCUUAUAAUUAACCCAUGUCAC [LRO Sensor-off var1-17 mod of Stov1-13-A1 by Brourd] (Eterna round: R97, puzzle: Sensor, turn-off variant 1) .
Resp: 16.1

Req: Identify measured apparent KD of MS2 coat protein associated with UACAAGCUUUGGCGAUCCUACAUGAGGAUCACCCAUGUGGGCCCGCCAGAGGCGGGCCCAUUUGCCCGUCUUGUGAA [Energy optimization 2] (Eterna round: R97, puzzle: Sensor, turn-off variant 1)
Resp: 16.3

Req: Please report apparent KD of MS2 coat protein for the following sequence: UGUCAGAUGGUAGGAUAUCCGUAUCGCGUGUCCCUUUCCUAACAUGAGGAUCACCCAUGUCGGUGGGAGAAGGGCCGUAUGGUG [salish99_ExNG02_R04_037] (Eterna round: R96, puzzle: Exclusion NG 2)
Resp: 15.3

Req: Please give measured apparent KD of MS2 coat protein of the following entry: AACACUGUAGGAUAUCAUGAACUGGACUUGAGGAUCACCCAAGUGUAUCGUGGAGUGCCGUGAGAAGGACGGAUUA [Erleen] (Eterna round: R97, puzzle: Exclusion 5)
Resp: 27.2

Req: Return apparent KD of MS2 coat protein (reported value) for this sequence: CCCGUGUGAGGAUAUCCCUCCACAGUACGAAUCGACCCGUGGGAGAAGGCACAUGAGGAUCACCCAUGUGAACG [Eternabot (Original) Solution 30] (Eterna round: R97, puzzle: Exclusion 4)
Resp: 32.8

Req: Determine from records and report apparent KD of MS2 coat protein for GGGUGACAGUUAGGAUAUCUUAGCACGCCGUAGAGAGAAGGGACAUGAGGAUCACCCAUGUUGUAGUGCCUCAAACACUGCUAG [Beintitian] (Eterna round: R96, puzzle: Exclusion NG 1)
Resp: 48.3

Req: Consider the sequence UUAUUAUAUGUAGGAUAUGCAUAUUGUUGUUAUGCAGAAGGACAUGAGGAUCACCCAUGUAUAUUGUUGUUAUAUAUUAUAUAU [Title] (Eterna round: R96, puzzle: Exclusion NG 1) and give its recorded apparent KD of MS2 coat protein.
Resp: 22.3

Req: Supply recorded apparent KD of MS2 coat protein for GGGAAGAACCAACAAGUAGACAUGAGGAUCACCCAUGUAGACUUCAUGUGCACGCAAAGCGUGCAAGCUCGUCUUAU [AK-miRNA-r3-14.4] (Eterna round: R97, puzzle: Sensor, turn-off variant 1) here.
Resp: 19.8
